molecular target: Sentrin-specific protease 7 (Homo sapiens); test: SENP7 protease inhibitors, primary screen, biochemical, luminescence, uHTS (AID 434973); conditions: recombinant SENP7, Z-RLRGG-aminoluciferin luminescence, 40 min; at 5 µM; stronger effect = higher value;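 further: plate controls were DMSO with enzyme for no effect and no enzyme buffer wells for full effect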
Among all 330,000 compounds or so, about 4,900 (1.5%) were called active. The list comes from a sample in which actives are over-represented; it also holds close analogues and randomly drawn compounds.
PARAMETER MEASURED: inhibition (%)
Express your answer in %, writing the number without its unit.

Request: For the molecule shown here, O=C(Nc1ncc([N+](=O)[O-])s1)C1COc2ccccc2O1 (centres undefined) , give the reported inhibition.
Result: 96.7

Request: For the molecule shown here, `Cc1cc(Nc2ccc(Br)cc2)nc2ccccc12` , give the reported inhibition.
Result: 0.988

Request: For the molecule shown here, `COc1ccccc1C1CCN(C(=S)Nc2ccc(Br)cc2)CC1` , give the reported inhibition.
Result: 5.73

Request: For the molecule shown here, `S=C(Nc1ccc2c(c1)OCO2)N1CCCC1` , give the reported inhibition.
Result: -4.52

Request: For the molecule shown here, `Cc1ccc(CSc2ccc(S(=O)(=O)N3CCCCC3)cn2)cc1` , give the reported inhibition.
Result: 14.9

Request: For the molecule shown here, COc1ccc(NC(=O)C2COc3ccccc3O2)cc1 (centres undefined) , give the reported inhibition.
Result: -20.8

Request: For the molecule shown here, CCCC(CNC(=O)COC(=O)C1=NNC(=O)CC1)c1ccc(Cl)cc1Cl (centres undefined) , give the reported inhibition.
Result: -4.17

Request: For the molecule shown here, COC(=O)C1(C)NC(c2ccccc2OC)C2C(=O)N(c3ccccc3)C(=O)C21 (centres undefined) , give the reported inhibition.
Result: -1.56

Request: For the molecule shown here, `COC(=O)C(=Nc1ccccc1)/C(C(=O)C(=O)N(C)c1ccccc1)=C(\O)c1ccc(Cl)cc1` , give the reported inhibition.
Result: -1.49

###

target: Sentrin-specific protease 7 (Homo sapiens) (UniProt Q9BQF6); assay: SENP7 protease inhibitors, primary screen, biochemical, luminescence, uHTS (AID 434973); settings: recombinant SENP7, Z-RLRGG-aminoluciferin luminescence, 40 min; at 5 µM;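 further: plate controls were DMSO with enzyme for no effect and no enzyme buffer wells for full effect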
Screen size: about 330,000 compounds; about 4,900 (1.5%) were called active.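 How the source made its calls: active means inhibition above about 50% at the single test dose (limit read from the data); inactive means the rest.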 What follows is part of a selection rich in actives, with near analogues and random picks from the rest.
// one of 1 = active, -1 = inactive, no free text

Request: Would you mind telling me which call this test gave `N/C(=N\OC(=O)c1ccc2c(c1)OCO2)c1ccc(Br)cc1` ?
Result: 1

Request: Would you mind telling me which call this test gave `O=C(NCc1ccccn1)Nc1ccc(Cl)cc1` ?
Result: -1

Request: Would you mind telling me which call this test gave `COc1cccc(C(=O)Nc2nnc(S(=O)(=O)N(C)c3ccccc3)s2)c1` ?
Result: -1

Request: Would you mind telling me which call this test gave `COc1cc(/C=C(\C#N)c2nc3ccccc3[nH]2)ccc1O` ?
Result: 1

Request: Would you mind telling me which call this test gave `COc1cc(OC)cc(-c2nc(=S)n3ccsc3n2)c1` ?
Result: -1

Request: Would you mind telling me which call this test gave `Cc1ccc(OCC(=O)N2CCN(S(=O)(=O)c3ccc(Cl)s3)CC2)cc1C` ?
Result: -1

Request: Would you mind telling me which call this test gave `N/C(=N\OC(=O)/C=C/c1ccccc1)c1ccc(Br)cc1` ?
Result: -1

Request: Would you mind telling me which call this test gave `COc1ccc(-c2cn3ccc(C)cc3n2)cc1` ?
Result: 1

Request: Would you mind telling me which call this test gave `COc1cc(CNC2CCCCC2)c(Br)cc1OC1CCCC1` ?
Result: -1

Request: Would you mind telling me which call this test gave Cc1cccc(S(=O)(=O)N2CN(CC3CCCO3)c3nc4ccccc4nc32)c1 (centres undefined) ?
Result: -1

Request: Would you mind telling me which call this test gave `CCN(CC)S(=O)(=O)c1ccc(-c2cn3ccc(C)cc3n2)cc1` ?
Result: -1

Request: Would you mind telling me which call this test gave `COC(=O)c1ccc(-n2cnc3ccccc32)nc1` ?
Result: -1

Request: Would you mind telling me which call this test gave `COc1cccc(C(=O)Nc2nnc(S(=O)(=O)N3CCOCC3)s2)c1` ?
Result: -1

Request: Would you mind telling me which call this test gave `COc1cccc(COC(=O)C2CCN(S(=O)(=O)c3ccc(Cl)cc3)CC2)c1OC` ?
Result: -1

Request: Would you mind telling me which call this test gave `O=C(O)c1ccc(S(=O)(=O)N2CCOCC2)o1` ?
Result: -1

Request: Would you mind telling me which call this test gave `Cc1ccc(S(=O)(=O)Nc2nc3ccccc3nc2N2CCc3ccccc3C2)cc1` ?
Result: 1

Request: Would you mind telling me which call this test gave `N/C(=N\OC(=O)N1c2ccccc2Sc2ccccc21)c1ccc(Br)cc1` ?
Result: -1

Request: Would you mind telling me which call this test gave `Cc1ccc2nc(/C(C#N)=C\c3ccc(OC(=O)c4cccs4)cc3)[nH]c2c1` ?
Result: -1

Request: Would you mind telling me which call this test gave `COc1ccc(-c2cn3cccnc3n2)cc1` ?
Result: -1

Request: Would you mind telling me which call this test gave `COc1ccc(C(=O)COC(=O)Cn2cnc3c2c(=O)n(C)c(=O)n3C)c(OC)c1` ?
Result: -1

Request: Would you mind telling me which call this test gave `CCc1noc(C)c1C(=O)Nc1nc(-c2ccccc2)cs1` ?
Result: -1

Request: Would you mind telling me which call this test gave CC(Sc1sc(=S)sc1SC(C)C(=O)O)C(=O)O (centres undefined) ?
Result: -1

Request: Would you mind telling me which call this test gave `Cc1ccc(S(=O)(=O)N2CCN(c3ncnc4ccccc34)CC2)cc1` ?
Result: -1

Request: Would you mind telling me which call this test gave `O=C(COc1ccccc1O)NC1CCCC1` ?
Result: -1

###

target: Sentrin-specific protease 7 (Homo sapiens); experiment: SENP7 protease inhibitors, primary screen, biochemical, luminescence, uHTS (AID 434973); conditions: recombinant SENP7, Z-RLRGG-aminoluciferin luminescence, 40 min; at 5 µM;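 further: plate controls were DMSO with enzyme for no effect and no enzyme buffer wells for full effect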
Out of some 330,000 compounds screened, about 4,900 (1.5%) were called active.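 How the source made its calls: active means inhibition above about 50% at the single test dose (limit read from the data); inactive means the rest.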 For the sample, actives were picked, then their nearest neighbours and some compounds at random.
// one of true (active), false (inactive), no free text

Request: Would you mind telling me which call this test gave `O=C(CCNC(=O)C1CCN(S(=O)(=O)c2ccccc2)CC1)NC1CC1` ?
Result: false

Request: Would you mind telling me which call this test gave `CC(=C/c1ccccc1)/C=N/NC(=O)c1cc(C)oc1C` ?
Result: true

Request: Would you mind telling me which call this test gave `Cc1ccc(CCCOC(=O)C[N+]2(C)CCCC2)cc1` ?
Result: false

Request: Would you mind telling me which call this test gave Cc1ccc(-c2csc(NC3OC(=O)c4ccccc43)n2)cc1 (stereo unspecified) ?
Result: false

Request: Would you mind telling me which call this test gave `Cc1nc2nc(COc3ccccc3)[nH]n2c(=O)c1Cc1ccccc1` ?
Result: false

Request: Would you mind telling me which call this test gave `O=c1oc2cc(O)ccc2cc1-c1ccc(F)cc1` ?
Result: true

Request: Would you mind telling me which call this test gave `O=C(COc1cccc(Cl)c1)NCc1ccccc1` ?
Result: false

Request: Would you mind telling me which call this test gave `CCOC(=O)c1ccc(Nc2cc3ccccc3c(=O)[nH]2)cc1` ?
Result: true

Request: Would you mind telling me which call this test gave CN(C)NC(=O)C(NC(=O)c1ccc(N)cc1)C12CC3CC(CC(C3)C1)C2 (stereo unspecified) ?
Result: false

Request: Would you mind telling me which call this test gave `O=C(Nc1ccccc1)c1ccc(NC(=O)c2cccs2)cc1` ?
Result: true

Request: Would you mind telling me which call this test gave `O=C(Nc1nnc(C2CC2)s1)c1ccccn1` ?
Result: true

Request: Would you mind telling me which call this test gave `CCOC(=O)c1ccc(NC(=O)c2cc(=O)[nH]c3ccccc23)cc1` ?
Result: false

Request: Would you mind telling me which call this test gave `Cc1cccc(NC(=O)CSCC(=O)Nc2nnc(C3CC3)s2)c1` ?
Result: false

Request: Would you mind telling me which call this test gave `CCOC(=O)N1CCC(NC(=O)CN2C(=O)COc3ccc(C(C)(C)C)cc32)CC1` ?
Result: false

Request: Would you mind telling me which call this test gave `CCn1cc(C(=O)NCCCN2CCCCCC2)c(=O)c2cc(S(=O)(=O)N3CCc4ccccc4C3)ccc21` ?
Result: false

Request: Would you mind telling me which call this test gave `O=C(Nc1ccc(NC(=O)c2cccs2)cc1)c1ccc2ccccc2c1` ?
Result: false

Request: Would you mind telling me which call this test gave `CC(C)(C)NC(=O)NCc1ccco1` ?
Result: false

Request: Would you mind telling me which call this test gave `CN1CCN(S(=O)(=O)c2ccc(Nc3ccc(F)cc3)nc2)CC1` ?
Result: false

Request: Would you mind telling me which call this test gave CCC1C=C(c2ccccc2)C=CN=C1N(CC)CC (stereo unspecified) ?
Result: false

Request: Would you mind telling me which call this test gave `COc1ccc(OC)c(CNC(=O)c2cc(=O)[nH]c3ccc(S(=O)(=O)N4CCCC4)cc23)c1` ?
Result: false

Request: Would you mind telling me which call this test gave `CCc1cc(C(=O)Nc2nnc(C3CC3)s2)sc1C` ?
Result: false

Request: Would you mind telling me which call this test gave `CCc1ccc(Oc2coc3cc(O)ccc3c2=O)cc1` ?
Result: false

Request: Would you mind telling me which call this test gave `CNc1[nH]ncc1[N+](=O)[O-]` ?
Result: false

Request: Would you mind telling me which call this test gave `O=C(N/N=C/c1cccc(O)c1)c1cc2c(ccc3ccccc32)o1` ?
Result: false

Request: Would you mind telling me which call this test gave `Cc1ccc(-c2ccc(/C=C(\C#N)C(N)=S)o2)c([N+](=O)[O-])c1` ?
Result: false

Request: Would you mind telling me which call this test gave `COc1cc(NC(=O)c2cncc(-c3ccc(C#N)cc3)c2)cc(C(=O)Nc2cccc(C(F)(F)F)c2)c1` ?
Result: false

Request: Would you mind telling me which call this test gave `COCOc1cc(O)c(C(=O)/C=C/c2ccc(OCOC)c(OCOC)c2)c(OCOC)c1` ?
Result: false

Request: Would you mind telling me which call this test gave `CCc1noc(C)c1C(=O)N1CCN(S(=O)(=O)c2cccc(C(F)(F)F)c2)CC1` ?
Result: false

Request: Would you mind telling me which call this test gave `CC(=O)Nc1ccc(/C=N/NC(=O)c2cccs2)cc1` ?
Result: true

Request: Would you mind telling me which call this test gave `O=c1c(-c2ccccc2)coc2cc(O)ccc12` ?
Result: true

Request: Would you mind telling me which call this test gave CCCCCCCCOC1OC(CO)C(O)C(O)C1NC(C)=O (stereo unspecified) ?
Result: false

Request: Would you mind telling me which call this test gave COc1cc(C2/C(=C(\O)c3ccc4c(c3)CC(C)O4)C(=O)C(=O)N2c2nnc(C)s2)cc(OC)c1OC (stereo unspecified) ?
Result: false

Request: Would you mind telling me which call this test gave `Cc1cc(C(=O)N/N=C\C(Br)=C\c2ccccc2)c(C)o1` ?
Result: false

Request: Would you mind telling me which call this test gave `NC(=O)c1ccccc1N=Cc1ccc2ccccc2c1` ?
Result: true

Request: Would you mind telling me which call this test gave `CCOC(=O)c1cc2cc3ccccc3cc2oc1=O` ?
Result: false

Request: Would you mind telling me which call this test gave `Cc1cc(C(=O)N/N=C/c2ccc(N3CCOCC3)cc2)c(C)o1` ?
Result: true

Request: Would you mind telling me which call this test gave Cc1nc(-c2ccccc2)sc1C1(C)CC(c2cccnc2)=NO1 (stereo unspecified) ?
Result: false

Request: Would you mind telling me which call this test gave `CCc1ccc(NC(=O)COC(=O)c2cccs2)cc1` ?
Result: false

Request: Would you mind telling me which call this test gave `Cc1cc(C(=O)Nc2nnc(C3CC3)s2)c(C)s1` ?
Result: true

Request: Would you mind telling me which call this test gave `CC(C)CN(Cc1c(O)ccc2c(=O)c(-c3ccccc3)coc12)CC(C)C` ?
Result: false

Request: Would you mind telling me which call this test gave `Cc1ccc(Nc2nc(-c3ccc(O)cc3O)cs2)nc1` ?
Result: false

Request: Would you mind telling me which call this test gave `Cc1cccc(Nc2nc(-c3ccccc3)cs2)n1` ?
Result: true

Request: Would you mind telling me which call this test gave `Cc1cc2oc(=O)cc(CN(C)Cc3ccc(OC(F)F)cc3)c2cc1Cl` ?
Result: false

Request: Would you mind telling me which call this test gave `Cc1c(Cl)cccc1NC(=O)Nc1ccc(C(=O)N2CCCC2)cc1` ?
Result: true

Request: Would you mind telling me which call this test gave `Cc1cccc(-n2c(C)cc(/C=N\NC(=O)c3cccs3)c2C)c1` ?
Result: false

Request: Would you mind telling me which call this test gave `Cc1ccn2c(=O)c(C(=O)NCCC3=CCCCC3)c(O)nc2c1` ?
Result: false
